System: ACHN renal
run_description: NCI tumour cell line growth inhibition, 48 h
Task for the reader: assign each of the following molecules its reported TGI.

[ask] Please look up its TGI: N#C/C(=C\c1cc(O)c(O)c(O)c1)C(N)=O
[reply] > 100 µM

[ask] Entry O=C1C=C(c2ccccc2)OC1C1Sc2ccccc2NC1=O (stereo unspecified) has what TGI?
[reply] > 62.6 µM

[ask] Item under review: CN1CCN(CCCNC(=O)c2c3c(n4ccccc24)C(=O)c2ncccc2C3=O)CC1 . Reported TGI?
[reply] 5.49 µM

[ask] Give the measured TGI of Cc1ccc2[nH]c3c(c(=O)n(C)c(=O)n3C)c2c1 .
[reply] > 100 µM

[ask] Given O=C1C=C(NCCO)c2nccc3c2c1nc1ccccc13 , state its recorded TGI.
[reply] > 100 µM

[ask] Bench note: what TGI did C=C1C(=O)O[C@H]2[C@H]1CC/C(COC(=O)c1cccnc1N)=C\CC[C@@]1(C)O[C@@H]21 show?
[reply] 10.3 µM

[ask] Requested read-out: TGI. Entry: COCn1cc(C2=C(C)C(=O)C(C)=C(C)C2=O)cn1
[reply] > 100 µM

[ask] Fill in the blank: the reported TGI of c1ccc(C2=NOC3C4CCC(C4)C23)cc1 (stereo unspecified) is ____.
[reply] > 100 µM

[ask] So what's the measured TGI for this one? CC1(C)C(N2CCOCC2)CS1(=O)=O (stereo unspecified)
[reply] > 10 µM

[ask] Need TGI of CN1CCC2(c3ccccc3)CC(=O)/C(=C/c3ccc(Cl)c(Cl)c3)C1C2 (stereo unspecified) , thanks.
[reply] 3.17 µM

[ask] Fill blank: measured TGI of the molecule CCN1CCN(c2nc(C)cc(NCc3cc(Nc4ccnc5cc(Cl)ccc45)ccc3F)n2)CC1 is ____.
[reply] 7.4 µM

----------
Exercise: state measured TGI for each of the molecules provided.
Test system: MALME-3M melanoma
run_description: NCI tumour cell line growth inhibition, 48 h

[ask] Requested read-out: TGI. Entry: CC[C@H](C)[C@@H]([C@@H](CC(=O)N1CCC[C@H]1[C@H](OC)[C@@H](C)C(=O)NCCc1ccccc1)OC)N(C)C(=O)C(NC(=O)[C@H](C(C)C)N(C)C)C(C)C (stereo partly drawn)
[reply] > 10 µM

[ask] # TGI lookup, item Cc1cc(O)c2c(c1)C(=O)c1c(c(O)cc(O)c1-c1c(O)cc(O)c3c1C(=O)c1cc(C)cc(O)c1C3=O)C2=O
[reply] 65.2 µM

[ask] I have this molecule here, CC1(C)CC[C@]2(C(=O)O)CC[C@]3(C)C(=CCC4=C5C[C@H](O)[C@H](O)[C@@](C)(CO)[C@@]5(C)CC[C@]43C)[C@@H]2C1 , and I need its recorded TGI.
[reply] > 100 µM

----------
Can you tell me TGI for the items I'm about to list?
System: NCI-H522 lung
run_description: NCI tumour cell line growth inhibition, 48 h
Reply numerically in µM, unit not repeated.

[ask] Bench note: what TGI did C=CCn1c2ccccc2c2c3c(c4c5ccccc5n(CC=C)c4c21)C(=O)N(O)C3=O show?
[reply] 2.56

[ask] Dear colleague, I am looking for the recorded TGI of the following compound: Cc1nc2sc(C(=O)Nc3cccc(Br)c3C)c(N)c2cc1C(O)c1ccccc1 (stereo not given)
[reply] 2.55

[ask] Report TGI for CN(C)NC1=C([N+](=O)[O-])C=NN(c2ccccc2)C1 please.
[reply] 0.343

[ask] Tell me the measured TGI of Cn1[nH]cc2ccc3nc4ccccc4c(=O)c3c21 , please.
[reply] 64.9

[ask] Requested read-out: TGI. Entry: CC[C@H](C)[C@@H]([C@@H](CC(=O)N1CCC[C@H]1[C@H](OC)[C@@H](C)C(=O)NCCc1ccccc1)OC)N(C)C(=O)C(NC(=O)[C@H](C(C)C)N(C)C)C(C)C (stereo not given in full)
[reply] 0.000434

[ask] I'd like to know its TGI. The compound in question is CC1=CC(=O)N(c2cccc3c(N4C(=O)C=C(C)C4=O)cccc23)C1=O
[reply] 1.79

[ask] Given CN1CCC2(c3ccccc3)CC(=O)/C(=C/c3ccc(Cl)c(Cl)c3)C1C2 (stereo not given) , state its recorded TGI.
[reply] 3.6

[ask] What value of TGI has been recorded for this entry: O=C(/C=C/c1ccc(Cl)c(Cl)c1)c1ccccc1Cl
[reply] 24.1

----------
Would you mind telling me the reported TGI of each entry?
System: LOX IMVI melanoma
run_description: NCI tumour cell line growth inhibition, 48 h

[ask] Query (molecule): NCCCNc1nc2ccccc2c2c(=O)c3cc(F)ccc3sc12 ; field requested: TGI
[reply] 2.83 µM

[ask] Any idea what its TGI is? The molecule is C=C(C)C1CC[C@@](C)(O)[C@H](C#N)C1 (stereo partly specified)
[reply] > 100 µM

[ask] Quick check: TGI of c1ccc2sc(SSSc3nc4ccccc4s3)nc2c1 ?
[reply] 49 µM

[ask] Field request: TGI | item: C=CCCCCCCCCCP(=O)(c1ccccc1)c1ccc2c(c1)OCCOCCOCCOCCO2 (stereo unspecified)
[reply] 29 µM

[ask] Which TGI is reported for this molecule? N#C/C(=C\c1cc(O)c(O)c(O)c1)C(N)=O
[reply] > 65.6 µM

[ask] // query TGI value for entry COc1cc(S(=O)(=O)Nc2ccc(-c3csc(N4C(=O)C(C)SC4c4cccs4)n3)cc2)ccc1Cl (stereo unspecified)
[reply] 96.7 µM

----------
Tested on: SK-OV-3 ovarian
run_description: NCI tumour cell line growth inhibition, 48 h
readout_type: TGI

[ask] Param readout= TGI; system= SK-OV-3 ovarian; entry= N#Cc1c(Cl)cc(C#N)n2c1nc1ccccc12 ; returns value.
[reply] 51.3 µM

[ask] Give SK-OV-3 ovarian TGI for CC(=O)OCC1OC(n2cccnc2=O)C(OC(C)=O)C1OC(C)=O (stereo not given)
[reply] > 100 µM

[ask] Query the reported TGI for SK-OV-3 ovarian; item: COc1ccccc1-n1nnc2c(N)nc(N)nc21
[reply] > 100 µM

[ask] Under SK-OV-3 ovarian: TGI value of CC(=O)NS(=O)(=O)c1ccc(NCc2cccc3c(=O)c4ccc(Cl)cc4oc23)cc1 ?
[reply] > 100 µM

[ask] Could you share what TGI was measured for CN(C)[C@@H]1C(=O)C(C(=O)NCNc2nc3n[nH]nc3c(=O)[nH]2)=C(O)[C@@]2(O)C(=O)C3=C(O)c4c(O)cccc4[C@@](C)(O)[C@H]3C[C@@H]12 , tested on SK-OV-3 ovarian?
[reply] 8.25 µM

----------
Test system: BT-549 breast
run_description: NCI tumour cell line growth inhibition, 48 h
For each entry below, report its TGI value.
# number only, unit µM dropped from output

[ask] Requested field: TGI. Item: NC(=O)c1c(NC(=O)c2cccs2)sc2c1CCC(=O)C2
[reply] 8.41

[ask] Recorded TGI for COC(=O)C1C(C(=O)O)C2(c3ccccc3)C(=O)C1(c1ccccc1)C(c1ccccc1)=C2c1ccccc1 (centres undefined) , please?
[reply] 37.6

[ask] Given the entry Cc1c(C(=O)c2ccccc2)[n+](=O)c2cc(Cl)c(Cl)cc2n1[O-] , report its measured TGI.
[reply] 31.5

[ask] State the recorded TGI for this entry: O=C1/C(=C\c2ccc(F)cc2)CN(C(=O)c2ccccc2F)C/C1=C\c1ccc(F)cc1
[reply] 3.41

----------
Tested on: OVCAR-5 ovarian
run_description: NCI tumour cell line growth inhibition, 48 h
Field: GI50. Provide a value for each of the molecules that follow.

[ask] Could you share which GI50 value was measured for Cn1c(CCCC(=O)O)nc2cc(N(CCCl)CCCl)ccc21 ?
[reply] > 100000 nM

[ask] Item COc1cccc(Nc2ncnc3cc(NC(=O)CCl)ccc23)c1 has what recorded GI50?
[reply] 1610 nM

[ask] Given NC(=O)c1c(NC(=O)c2cccs2)sc2c1CCC(=O)C2 , state its recorded GI50.
[reply] 2680 nM

[ask] Recorded GI50 of Nc1[nH]nc2nc(-c3cc(Cl)ccc3Cl)cc(-c3ccc(F)cc3)c12 , please.
[reply] 24300 nM

[ask] What does the data say about its GI50? Entry: O=C1/C(=C\c2ccc(F)cc2)CN(C(=O)c2ccccc2F)C/C1=C\c1ccc(F)cc1
[reply] 1880 nM

[ask] If you can, please state the reported GI50 value of C[C@@H](Nc1cc(F)cc(F)c1)c1cc(C(=O)N(C)C)cc2c(=O)cc(N3CCOCC3)oc12 .
[reply] 4160 nM

[ask] So what's the measured GI50 for this one? COc1ccc(OC)c(Nc2nc3nonc3nc2Nc2cccc(Br)c2)c1
[reply] 2560 nM

[ask] Which value of GI50 has been reported for O=C(Nc1nc(-c2ccc(Cl)cc2)cs1)c1cc(O)c(O)c(O)c1 in the records?
[reply] 915000 nM

[ask] Entry CCN1CCN(c2nc(C)cc(NCc3cc(Nc4ccnc5cc(Cl)ccc45)ccc3F)n2)CC1 : reported GI50 = ?
[reply] 2200 nM
